IC50: recorded values
biological target: factor Xa (Homo sapiens, UniProt P00742)
Sequence (P00742 235-488 limits assumed): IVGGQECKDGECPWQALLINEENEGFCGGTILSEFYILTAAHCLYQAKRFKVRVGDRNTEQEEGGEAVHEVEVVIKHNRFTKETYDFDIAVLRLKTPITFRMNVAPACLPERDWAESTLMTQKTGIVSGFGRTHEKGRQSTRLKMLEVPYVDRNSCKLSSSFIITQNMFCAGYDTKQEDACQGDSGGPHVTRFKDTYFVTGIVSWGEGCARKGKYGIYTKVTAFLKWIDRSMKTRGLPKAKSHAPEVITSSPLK
Sequence (P00742 41-179 partner limits assumed): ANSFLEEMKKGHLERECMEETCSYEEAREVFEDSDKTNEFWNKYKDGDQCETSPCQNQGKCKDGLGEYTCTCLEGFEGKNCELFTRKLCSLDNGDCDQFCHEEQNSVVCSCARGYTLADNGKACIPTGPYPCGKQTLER
Expressed in nM, but write only the number.

For orientation, consider the following solved cases.
{"columns": ["compound", "quantity-name", "value-reported"],
 "data": [
  ["CC(C)CN(Cc1cccc(C(=N)N)c1)C(=O)C(=O)Nc1ccc(-c2ccc(CN)cc2)cc1 [Example 6]", "IC50", 1500],
  ["CC(C)CN(Cc1cccc(C(=N)N)c1)C(=O)C(=O)Nc1ccc(-c2ccccc2S(C)(=O)=O)cc1 [Example 3]", "IC50", 9.6]
]}

Now consider a different compound.
Given CC(C)CN(Cc1cccc(C(=O)O)c1)C(=O)C(=O)Nc1ccc(-c2ccccc2S(N)(=O)=O)cc1 [Example 7] , respond with its IC50.
6000
